This collection of values is drawn from the RNAGym collection of RNA variant scans (doi:10.7554/elife.80360).

Documented self-cleavage across a set of variants
B1: CPEB3 Ribozyme (parent)
chain: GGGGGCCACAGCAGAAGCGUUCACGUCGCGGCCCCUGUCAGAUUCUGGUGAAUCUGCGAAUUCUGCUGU

- Variants of: B1
- Assay Overview: self-cleavage, relative activity (ratio to wild type); higher = more cleavage; co-transcriptional

{"Sequence Entry": "GGGGGCCACAGCAGAAGCGUUCACGUCGCGGCCCUUGUCAGAUUCUGGUGACUCUGCGAAUUCUGCUGU [C35U A52C]", "self-cleavage": 1.01}
{"Sequence Entry": "GGGGGCCACAGCAGAAGCGUUCACGUCGCGGCCCCUGUCAGAUUCUGGUGAAUCUGGGAAUUCUGUUGU [C57G C66U]", "self-cleavage": 0.333}
{"Sequence Entry": "GGGGGGCACAGCAGAAGCGGUCACGUCGCGGCCCCUGUCAGAUUCUGGUGAAUCUGCGAAUUCUGCUGU [C6G U20G]", "self-cleavage": 0.0342}
{"Sequence Entry": "GGGGGCCACAGCAGAAGCGUUCACGUCGCUGCCCCUGUCAGAUUCUGGUGAAUCUGCGAAUUCUACUGU [G30U G65A]", "self-cleavage": 0.203}
{"Sequence Entry": "GGGGGCCACAGCAGAAGCGUUCACGUCGCGGCCCCUGUCAGAUUCUGGUGAUUCUGCGAAUUCUGCUAU [A52U G68A]", "self-cleavage": 0.975}
{"Sequence Entry": "GGGGGCCACAGCAGUAGCGUUCACGUCGCGGCCCAUGUCAGAUUCUGGUGAAUCUGCGAAUUCUGCUGU [A15U C35A]", "self-cleavage": 0.192}
{"Sequence Entry": "GGGGGCCACAGCAGAAUCGUUCACGUCGCGGCCCCUGCCAGAUUCUGGUGAAUCUGCGAAUUCUGCUGU [G17U U38C]", "self-cleavage": 0.413}
{"Sequence Entry": "GGGGGCCACAGCAGAAGCGUUCACGUCGCGGCCCCUGUCAGAUUAUGGUGAACCUGCGAAUUCUGCUGU [C45A U53C]", "self-cleavage": 0.804}
{"Sequence Entry": "GGGGGCCACAGCAGAAGCGUUCACGUCGCGACCCCUGUCAGAUUCUGGUGAUUCUGCGAAUUCUGCUGU [G31A A52U]", "self-cleavage": 0.888}
{"Sequence Entry": "GGGGGCCAGAGCAGAAGCGUUCACGUCGCGGCCCCUGUCAGAUUAUGGUGAAUCUGCGAAUUCUGCUGU [C9G C45A]", "self-cleavage": 1.01}
{"Sequence Entry": "GGGGGCCACAGCAGAAGCGUUCACGUCGCGGCCCCUGUCAGUUUCUGGUAAAUCUGCGAAUUCUGCUGU [A42U G50A]", "self-cleavage": 0.949}
{"Sequence Entry": "GGGGGCCACAGCAGAAGCGUACACGUCGCGGCCCCUGUCAGAUUCUGGUGAAUCUGCGAAUUCUACUGU [U21A G65A]", "self-cleavage": 0.862}
{"Sequence Entry": "GGGGGCCACAUCAGAAGCGUUCACGUCACGGCCCCUGUCAGAUUCUGGUGAAUCUGCGAAUUCUGCUGU [G11U G28A]", "self-cleavage": 0.125}
{"Sequence Entry": "GGGGGCCACAGCAGAAGCGUUCACGUCGCGGCCCCUGUAAGAUUCUGGUGAAUCAGCGAAUUCUGCUGU [C39A U55A]", "self-cleavage": 0.825}
{"Sequence Entry": "GGGGCCCACAGCAGAAGCGUUCACGUCGCGGCCCCUGUCAGAUUCUGCUGAAUCUGCGAAUUCUGCUGU [G5C G48C]", "self-cleavage": 0.245}
{"Sequence Entry": "GGGGGCCACAGCAGAAGCGUUCACGUCGCGGCCCCUGUCAGAUUCUGGGGAAUCUGCGUAUUCUGCUGU [U49G A59U]", "self-cleavage": 0.835}
{"Sequence Entry": "GGGGGCCACAGCACAAGCGUUCACGUCGCGGCCCCUGUCAGAUUCUGGUGACUCUGCGAAUUCUGCUGU [G14C A52C]", "self-cleavage": 0.459}
{"Sequence Entry": "UGGGGCCACAGCAGAAGAGUUCACGUCGCGGCCCCUGUCAGAUUCUGGUGAAUCUGCGAAUUCUGCUGU [G1U C18A]", "self-cleavage": 0.0311}
